System: Mus musculus
test method notes: In vivo growth inhibitory activity was measured against murine P388 leukemia cells as Percent increase in life span at the dose of 50.0 mg/kg/day
Type: functional
measured quantity: ILS at 50 mg/kg/day (%)
# number only, unit % dropped from output

# annotated cases, reported ILS at 50 mg/kg/day shown
COc1cccc2c1C(=O)c1c(O)c3c(c(O)c1C2=O)C[C@@](O)(C(C)=O)C[C@@H]3OC1CC(NC(=O)C(F)(F)C(F)(F)F)C(O)C(C)O1 (stereo not given in full) ... 27
CCCCC(=O)OCC(=O)[C@]1(O)Cc2c(O)c3c(c(O)c2[C@@H](OC2CC(NC(=O)C(F)(F)C(F)(F)F)C(O)C(C)O2)C1)C(=O)c1c(OC)cccc1C3=O (stereo not given in full) ... 0
COc1cccc2c1C(=O)c1c(O)c3c(c(O)c1C2=O)C[C@@](O)(C(=O)CO)C[C@@H]3OC1CC(NC(=O)C(F)(F)C(F)(F)C(F)(F)F)C(O)C(C)O1 (stereo not given in full) ... 54
CCCCC(=O)OCC(=O)[C@]1(O)Cc2c(O)c3c(c(O)c2[C@@H](OC2CC(NC(=O)C(F)(F)C(F)(F)C(F)(F)F)C(O)C(C)O2)C1)C(=O)c1c(OC)cccc1C3=O (stereo not given in full) ... 0

Find the recorded ILS at 50 mg/kg/day belonging to COc1cccc2c1C(=O)c1c(O)c3c(c(O)c1C2=O)C[C@@](O)(C(=O)CO)C[C@@H]3OC1CC(NC(=O)C(F)(F)C(F)(F)F)C(O)C(C)O1 (stereo not given in full) and report it.
372
